The measurements presented in this section are drawn from ChEMBL document CHEMBL1133253.

Experiment: Tested for bioavailability of the compound
Assay type: ADME, organism-based
Conditions: mouse, in vivo
readout.name: bioavailability (%)

>>> print(df.to_string())
                            smiles_notation  value_observed
0  C#CCONC(=O)O[C@H]1[C@@H](O)[C@H](Oc2ccc3c(=O)c(/C(C)=N/OC)c(O)oc3c2C)OC2(CCCC2)[C@@H]1OC              62

###

Experiment: Tested for half life at the dose of 10 mg/kg when administered intravenously
Assay type: ADME, organism-based
Set-up: dose 10 mg/kg, route intravenous
Conditions: mouse, in vivo, iv
readout.name: half-life (h)

In [3]: df
Out[3]:
                            smiles_notation  value_observed
0  C#CCONC(=O)O[C@H]1[C@@H](O)[C@H](Oc2ccc3c(=O)c(/C(C)=N/OC)c(O)oc3c2C)OC2(CCCC2)[C@@H]1OC             2.5
